Experiment: The drug is tested on Bifidobacterium breve strain: DSM20213 for biotransformation. The drug concentrations were measured before and after a 12-h incubation by liquid-chromatography-coupled mass spectrometry (LC–MS)
Conditions: 2 µM
Non-standard residues stand in square brackets, D forms with d. Residues, ends and D or L forms follow the SMILES beside them. pGlu = O=C1CC[C@@H](C(=O)O)N1; Thz = O=C(O)[C@@H]1CSCN1
READOUT_NAME: Bacterial Biotransformation

COc1ccc(CCN(C)CCCC(C#N)(c2ccc(OC)c(OC)c2)C(C)C)cc1OC (centres undefined) ... Compound NOT metabolized
CN(C)CCOC(c1ccc(Cl)cc1)c1ccccn1.O=C(O)/C=C\C(=O)O (centres undefined) [CARBINOXAMINE MALEATE] ... Compound NOT metabolized
CN1CCN(C(=O)O[C@H]2c3nccnc3C(=O)N2c2ccc(Cl)cn2)CC1 [ESZOPICLONE] ... Compound NOT metabolized
CN1CCN2c3ccccc3Cc3ccccc3C2C1 (centres undefined) [MIANSERIN] ... Compound NOT metabolized
CN1CCN(CC/C=C2/c3ccccc3Sc3ccc(S(=O)(=O)N(C)C)cc32)CC1 [THIOTHIXENE] ... Compound metabolized
C[C@@H]1CC[C@H]2[C@@H](C)C(=O)O[C@@H]3O[C@@]4(C)CC[C@@H]1[C@]32OO4 [ARTEMISININ] ... Compound metabolized
COC1=C(OC)C(=O)C(CCCCCCCCCCO)=C(C)C1=O [IDEBENONE] ... Compound NOT metabolized
O=C1CC[C@@H](C(=O)N2CSC[C@H]2C(=O)O)N1 [PIDOTIMOD] ([pGlu]-[Thz]-OH) ... Compound NOT metabolized

Shifting focus to the molecule that follows.
Incoming: Endpoint output: Bacterial Biotransformation of OC(Cn1cncn1)(Cn1cncn1)c1ccc(F)cc1F [FLUCONAZOLE] . Value?
Outgoing: Compound NOT metabolized

----------
Assay: The drug is tested on Bacteroides finegoldii strain: DSM17565 for biotransformation. The drug concentrations were measured before and after a 12-h incubation by liquid-chromatography-coupled mass spectrometry (LC–MS)
Settings: 2 µM
READOUT_NAME: Bacterial Biotransformation

Some entries whose results are on file:
CC#CCn1c(N2CCC[C@@H](N)C2)nc2c1c(=O)n(Cc1nc(C)c3ccccc3n1)c(=O)n2C [LINAGLIPTIN] ... Compound metabolized
COC(=O)C(c1ccccc1)C1CCCCN1 (stereo not drawn) [METHYLPHENIDATE] ... Compound NOT metabolized
CN(C)CCOC(C)(c1ccccc1)c1ccccn1.O=C(O)CCC(=O)O (stereo not drawn) [DOXYLAMINE SUCCINATE] ... Compound NOT metabolized
CCCCCNC(=N)N/N=C/c1c[nH]c2ccc(OC)cc12.O=C(O)/C=C\C(=O)O [TEGASEROD MALEATE] ... Compound NOT metabolized
CCCC(C)(COC(N)=O)COC(=O)NC(C)C (stereo not drawn) [CARISOPRODOL] ... Compound NOT metabolized

Incoming: Endpoint output: Bacterial Biotransformation of CN(C)C(=O)Oc1cc(OC(=O)N(C)C)cc(C(O)CNC(C)(C)C)c1 (stereo not drawn) [BAMBUTEROL] . Value?
Outgoing: Compound NOT metabolized

Incoming: Endpoint output: Bacterial Biotransformation of CC(=O)OCC(=O)[C@@]12N=C(C)O[C@@H]1C[C@H]1[C@@H]3CCC4=CC(=O)C=C[C@]4(C)[C@H]3[C@@H](O)C[C@@]12C [DEFLAZACORT] . Value?
Outgoing: Compound metabolized

Incoming: Endpoint output: Bacterial Biotransformation of CCOc1ccc(NC(C)=O)cc1 [PHENACETIN] . Value?
Outgoing: Compound NOT metabolized

----------
Target: SGNH hydrolase-type esterase domain-containing protein (Phocaeicola dorei, UniProt B6VTE7)
Sequence (B6VTE7 whole entry): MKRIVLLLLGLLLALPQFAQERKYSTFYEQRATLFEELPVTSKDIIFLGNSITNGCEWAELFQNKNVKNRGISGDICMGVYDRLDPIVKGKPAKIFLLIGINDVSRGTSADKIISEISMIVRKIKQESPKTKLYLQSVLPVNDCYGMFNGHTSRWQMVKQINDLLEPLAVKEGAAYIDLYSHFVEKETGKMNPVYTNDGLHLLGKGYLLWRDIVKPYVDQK
Assay: The drug is tested on Bacteroides dorei strain: DSM17855 for biotransformation. The drug concentrations were measured before and after a 12-h incubation by liquid-chromatography-coupled mass spectrometry (LC–MS)
Assay type: ADME
Parameters: dose 2 uM
Details: 2 µM
READOUT_NAME: Bacterial Biotransformation

Some entries whose results are on file:
O=C(O)c1cc(/N=N/c2ccc(S(=O)(=O)Nc3ccccn3)cc2)ccc1O ... Compound NOT metabolized
CC(=O)Nc1ccc(OC(C)=O)cc1 [DIACETAMATE] ... Compound metabolized
N#Cc1ccc2c(c1)N(CCCN1CCC(O)CC1)c1ccccc1S2 ... Compound NOT metabolized
CCOC(=O)C1=C(C)NC(C)=C(C(=O)OC)C1c1cccc([N+](=O)[O-])c1 (stereo not drawn) ... Compound NOT metabolized
Nc1ccc(/N=N/c2ccccc2)c(N)n1 ... Compound NOT metabolized

Incoming: Endpoint output: Bacterial Biotransformation of C[C@]12CCC(=O)C=C1[C@@H]1C[C@@H]1[C@H]1[C@@H]3[C@@H]4C[C@@H]4[C@@]4(CCC(=O)O4)[C@@]3(C)CC[C@@H]12 . Value?
Outgoing: Compound NOT metabolized

Incoming: Endpoint output: Bacterial Biotransformation of COc1ccc([C@@H]2Sc3ccccc3N(CCN(C)C)C(=O)[C@@H]2OC(C)=O)cc1 . Value?
Outgoing: Compound NOT metabolized

Incoming: Endpoint output: Bacterial Biotransformation of CCN(CC)C(=O)/C(C#N)=C/c1cc(O)c(O)c([N+](=O)[O-])c1 . Value?
Outgoing: Compound NOT metabolized

Incoming: Endpoint output: Bacterial Biotransformation of CC(=O)OCC(CCn1cnc2cnc(N)nc21)COC(C)=O . Value?
Outgoing: Compound metabolized

Incoming: Endpoint output: Bacterial Biotransformation of C#C[C@]1(OC(C)=O)CC[C@H]2[C@@H]3CCC4=CC(=O)CC[C@@H]4[C@H]3CC[C@@]21C [NORETHINDRONE ACETATE] . Value?
Outgoing: Compound NOT metabolized

Incoming: Endpoint output: Bacterial Biotransformation of C#C[C@]1(O)CC[C@H]2[C@@H]3CCC4=Cc5oncc5C[C@]4(C)[C@H]3CC[C@@]21C . Value?
Outgoing: Compound NOT metabolized

Incoming: Endpoint output: Bacterial Biotransformation of CCS(=O)(=O)CCn1c([N+](=O)[O-])cnc1C . Value?
Outgoing: Compound NOT metabolized

Incoming: Endpoint output: Bacterial Biotransformation of C#C[C@]1(O)CC[C@H]2[C@@H]3CCC4=CC(=O)CC[C@@H]4[C@H]3CC[C@@]21CC . Value?
Outgoing: Compound NOT metabolized

Incoming: Endpoint output: Bacterial Biotransformation of CC(=O)SCC(Cc1ccccc1)C(=O)NCC(=O)OCc1ccccc1 (stereo not drawn) . Value?
Outgoing: Compound NOT metabolized

Incoming: Endpoint output: Bacterial Biotransformation of COc1ccnc(C[S+]([O-])c2nc3ccc(OC(F)F)cc3[nH]2)c1OC (stereo not drawn) . Value?
Outgoing: Compound metabolized

Incoming: Endpoint output: Bacterial Biotransformation of CC(=O)Oc1ccc(C(c2ccc(OC(C)=O)cc2)c2ccccn2)cc1 . Value?
Outgoing: Compound metabolized

Incoming: Endpoint output: Bacterial Biotransformation of C[C@@H]1CC[C@H]2[C@@H](C)C(=O)O[C@@H]3O[C@@]4(C)CC[C@@H]1[C@]32OO4 . Value?
Outgoing: Compound NOT metabolized

Incoming: Endpoint output: Bacterial Biotransformation of CC(=O)OCC(=O)NCCCOc1cccc(CN2CCCCC2)c1 [ROXATIDINE ACETATE] . Value?
Outgoing: Compound NOT metabolized

----------
Settings: bacteroides thetaiotaomicron, 12 h, 2 µM
Description: The drug is tested on Bacteroides thetaiotaomicron strain: 7330 for biotransformation. The drug concentrations were measured before and after a 12-h incubation by liquid-chromatography-coupled mass spectrometry (LC–MS)
READOUT_NAME: Bacterial Biotransformation

Some entries whose results are on file:
CCN(CC)C(=O)/C(C#N)=C/c1cc(O)c(O)c([N+](=O)[O-])c1 [ENTACAPONE] ... Compound metabolized
CN(C)CCOC(C)(c1ccccc1)c1ccccn1.O=C(O)CCC(=O)O (centres undefined) [DOXYLAMINE SUCCINATE] ... Compound NOT metabolized
Clc1ccc(Cn2c(CN3CCCC3)nc3ccccc32)cc1 [CLEMIZOLE] ... Compound NOT metabolized
CCN1CCCC1CNC(=O)c1cc(S(=O)(=O)CC)c(N)cc1OC (centres undefined) [AMISULPRIDE] ... Compound NOT metabolized
CS(=O)(=O)O.O.O.O.O=C1Cc2cc(CCN3CCN(c4nsc5ccccc45)CC3)c(Cl)cc2N1 [ZIPRASIDONE MESYLATE] ... Compound NOT metabolized
CNNCc1ccc(C(=O)NC(C)C)cc1 [PROCARBAZINE] ... Compound NOT metabolized
CC(=O)OCC(=O)NCCCOc1cccc(CN2CCCCC2)c1 [ROXATIDINE ACETATE] ... Compound metabolized
N[C@@H](Cc1ccc(N(CCCl)CCCl)cc1)C(=O)O ... Compound metabolized

Shifting focus to the compound that follows.
Incoming: Endpoint output: Bacterial Biotransformation of O=C(NCc1ccccc1)OCCO [BURAMATE] . Value?
Outgoing: Compound NOT metabolized
